Listed here: items and their measured area under dose-response curve.
Tested on: myeloid leukemia patient primary cells Pat.4
Assay: area under dose-response curve (viability, 1 nM-10 uM) (fraction (0-1)); higher = more sensitive
Conditions: 72 h

Record excerpt, results attached:
[
  {
    "compound": "Oc1ccc(Nc2nc(-c3ccc(Cl)cc3)cs2)cc1 [SKI II]",
    "target": "myeloid leukemia patient primary cells Pat.4",
    "area under dose-response curve": 0.0605
  },
  {
    "compound": "C=C(C=NNC(=N)N)NNC(=N)N [Mitoguazone]",
    "target": "myeloid leukemia patient primary cells Pat.4",
    "area under dose-response curve": 0.0342
  },
  {
    "compound": "O=C(O)Cn1nnc(-c2cc(N3CCC(Oc4cc(F)ccc4Br)CC3)no2)n1 [MK-8245]",
    "target": "myeloid leukemia patient primary cells Pat.4",
    "area under dose-response curve": "< 0.0301"
  },
  {
    "compound": "Cc1c(-c2ccc(-c3ccccc3F)cc2)nc2ccc(F)cc2c1C(=O)O [Brequinar]",
    "target": "myeloid leukemia patient primary cells Pat.4",
    "area under dose-response curve": "< 0.0301"
  },
  {
    "compound": "CC[C@@]1(O)C(=O)OCc2c1cc1n(c2=O)Cc2cc3c(CN(C)C)c(O)ccc3nc2-1 [Topotecan]",
    "target": "myeloid leukemia patient primary cells Pat.4",
    "area under dose-response curve": 0.132
  }
]

Could you tell me which area under dose-response curve is on file for Nc1nc(Cl)nc2c1ncn2[C@H]1C[C@H](O)[C@@H](CO)O1 [Cladribine] ?
0.689

Could you tell me which area under dose-response curve is on file for O=C1O/C(=C/Br)CCC1c1cccc2ccccc12 (configuration not stated) [Bromoenol Lactone] ?
0.213
